Values compiled from patent US20250163104A1.

testedOn: human PD-1 / PD-L1-Ig binding on Jurkat cell line over-expressing human PD-1 (Jurkat-PD-1) (Homo sapiens, UniProt Q15116)
Construct: expressed in transfected cells; host or cells: Jurkat
Sequence (Q15116 25-288): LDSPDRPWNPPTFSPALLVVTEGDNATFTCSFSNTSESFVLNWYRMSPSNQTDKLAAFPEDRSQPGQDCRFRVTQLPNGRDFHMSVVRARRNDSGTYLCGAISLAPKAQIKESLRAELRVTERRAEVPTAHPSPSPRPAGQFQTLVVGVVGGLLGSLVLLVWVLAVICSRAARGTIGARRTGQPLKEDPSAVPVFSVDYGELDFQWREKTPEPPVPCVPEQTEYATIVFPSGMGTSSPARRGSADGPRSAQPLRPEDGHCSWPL
testProtocol: Jurkat-PD-1 Cell Binding High-Content Screening Assay (CBA)
Format: cell-based
settings: Jurkat-PD-1 cells, PE-labeled PD-L1-Ig 20 nM final; read-out: Jurkat HPD1_PDL1 IC50
Where a SMILES comes first, the peptide text is derived from it. Bridges are numbered along the chain shown (N, C = ends). [ ]: non-standard residue; d: D form. Bip = N[C@@H](Cc1ccc(-c2ccccc2)cc1)C(=O)O; Dab = NCC[C@H](N)C(=O)O
observedProperty: pIC50
Would you please state pIC50, meaning minus log10 of the concentration in mol/L, as a bare number?

## Input # get_value(readout='pIC50', item= CC(C)C[C@@H]1NC(=O)[C@H](CCN)NC(=O)[C@@H](CC(C)C)NC(=O)[C@@H](CC(=O)O)NC(=O)[C@H](C(C)C)NC(=O)[C@H](Cc2ccc(-c3ccccc3)cc2)NC(=O)[C@H](C(C)C)NC(=O)[C@H](Cc2c[nH]c3ccccc23)NC(=O)[C@H](CC(=O)O)NC(=O)[C@H](Cc2ccc(O)cc2)NC(=O)[C@H](CC(N)=O)NC(=O)CSC[C@@H](C(=O)N[C@@H](C)C(N)=O)NC(=O)[C@H]([C@@H](C)O)NC(=O)[C@H](C(C)C)NC1=O [Compound 1021] ({CH2CO}-NYDWV[Bip]V[dD][dL][Dab]LVTCA-NH2; thioether N-14) )
## Output 7.57
